- Experiment: Microsomal stability assay, mouse liver microsomes
- Assay type: in vitro ADME
- Condition Label: mouse liver microsomes 0.5 mg/mL, 1 μM compound
Quantity Name: CLINT mouse (mL/min/kg body weight)
Numbers only, in mL/min/kg body weight.

As a guide, the following entries are already answered.
[
  {
    "Compound": "O=C(N[C@@H](Cn1ccnc1)c1ccc(Cl)cc1Cl)c1ccc(-c2nnc(-c3ccc(-c4ccccn4)cc3F)o2)cc1 [Compound 12]",
    "Measurement Unit": "mL/min/kg body weight",
    "Value": 36.5
  },
  {
    "Compound": "O=C(N[C@@H](Cn1ccnc1)c1ccc(Cl)cc1Cl)c1ccc(-c2nnc(-c3cc(F)cc(-c4ccccn4)c3)o2)cc1 [Compound 11]",
    "Measurement Unit": "mL/min/kg body weight",
    "Value": 55.0
  },
  {
    "Compound": "O=C(N[C@@H](Cn1ccnc1)c1ccc(Cl)cc1Cl)c1ccc(-c2nnc(-c3ccc(F)c(F)c3)o2)cc1 [Compound 1]",
    "Measurement Unit": "mL/min/kg body weight",
    "Value": 55
  }
]

I have 4 compounds here; please give me CLINT mouse for each one.
1. O=C(N[C@@H](Cn1ccnc1)c1ccc(Cl)cc1Cl)c1ccc(-c2nnc(-c3cccc(Br)c3)o2)cc1 [Compound 6]
2. O=C(N[C@@H](Cn1ccnc1)c1ccc(Cl)cc1Cl)c1ccc(-c2nnc(-c3ccc(-c4ccccn4)cc3)o2)cc1 [Compound 10]
3. O=C(N[C@@H](Cn1ccnc1)c1ccc(Cl)cc1Cl)c1ccc(-c2nnc(-c3ccccc3)o2)cc1 [VNI, reference compound]
4. O=C(N[C@@H](Cn1ccnc1)c1ccc(Cl)cc1Cl)c1ccc(-c2nnc(-c3ccc(OCC(F)(F)F)cc3F)o2)cc1 [Compound 3]

126
95
87
88
